protocolDetails: chemical genetic growth profiling, strain panel (AID 1159580);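 also: tested at 20 µM; growth read once vehicle control cultures reached saturation at 30 °C; 1 = growth at the plate median or of vehicle wells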
protocolConditions: S. cerevisiae deletion strains, growth OD, locus YHR200W, strain rpn10
The campaign covered roughly 5,500 compounds. About 2,000 (36%) were called active. Inconclusive results (about 18%) are left out. Rule as the data show it: active = normalized growth mostly below about 0.91 (no sharp cut-off); inconclusive = no clear call, values can overlap the other calls; inactive = mostly above about 0.92. Some of the results follow.
Choose the fitting class; nothing outside Y for active, N for inactive is accepted.

{"molecule": "CC(=O)OCC(=O)[C@@]1(O)[C@H](OC(C)=O)CC2C3CCC4=CC(=O)C=C[C@]4(C)[C@@]3(F)[C@@H](O)C[C@@]21C (stereo not given in full)", "assignedClass": "N"}
{"molecule": "CCCC(C(=O)OCCN(CC)CC)(c1ccccc1)c1ccccc1", "assignedClass": "N"}
{"molecule": "N[C@@H](Cc1cc(I)c(Oc2cc(I)c(O)c(I)c2)c(I)c1)C(=O)O", "assignedClass": "Y"}
{"molecule": "COc1cc(C)c(C(=O)Oc2cc(C)c(C(=O)O)c(O)c2C)c(OC)c1C", "assignedClass": "N"}
{"molecule": "O=c1cc(-c2ccccc2)oc2cc(O)cc(O)c12", "assignedClass": "Y"}

query: So what was the verdict on COC(=O)c1c(C)cc(OC(=O)c2c(C)cc(O)c(C=O)c2O)c(C)c1O in this test?
result: N

* * *

protocolDetails: chemical genetic growth profiling, strain panel (AID 1159580)
protocolConditions: S. cerevisiae deletion strains, growth OD, locus YDL074C, strain BRE1, stronger effect = lower value
Screen size: about 5,500 compounds; about 2,000 (36%) were called active. Not shown: some 18% with an inconclusive outcome. This is one part of the list.
observedProperty: normalized growth

{"compound": "CC1(C)C(=O)C=C[C@@]2(C)C1CC(=O)[C@@]1(C)C3=CC(=O)O[C@@H](c4ccoc4)[C@]3(C)CCC12 (some centres undefined)", "normalized growth": "1 (inactive)"}
{"compound": "CC1(C)C(O)CC(O)C2(C)C1CC(O)C1(C)C2CCC2(C)C(c3ccoc3)OC(=O)C3OC321 (centres undefined)", "normalized growth": "0.998 (inactive)"}
{"compound": "CC(=O)O[C@H]1C[C@@H](OC(C)=O)C(C)(C)C2CC(=O)[C@]3(C)C(CC[C@@]4(C)[C@H](c5ccoc5)OC(=O)[C@H]5O[C@]543)[C@]21C (some centres undefined)", "normalized growth": "0.981 (inactive)"}

Here is the next item to consider.
query: Quick one: normalized growth of Cc1cc(=O)oc2c(O)c(O)ccc12 ?
result: 0.993 (inactive)

* * *

Give normalized growth for every item shown.
protocolDetails: chemical genetic growth profiling, strain panel (AID 1159580)
protocolConditions: S. cerevisiae deletion strains, growth OD, locus YNL153C, strain GIM3, stronger effect = lower value
The whole screen tested about 5,500 compounds, of which about 2,000 (36%) were called active. Not shown: some 18% with an inconclusive outcome. The list shows a part of the results.
Answers are plain numbers.

Provide the reported normalized growth of each entry below, same order.
1. COc1cc2c(cc1O)C(Cc1ccc(O)cc1)N(C)CC2 (stereo unspecified)
2. C[C@H]1C2Cc3ccc(O)cc3[C@]1(C)CCN2CC1CC1

result:
1. 1.01
2. 1.02

* * *

protocolDetails: chemical genetic growth profiling, strain panel (AID 1159580);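 also: tested at 20 µM; growth read once vehicle control cultures reached saturation at 30 °C; 1 = growth at the plate median or of vehicle wells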
protocolConditions: S. cerevisiae deletion strains, growth OD, locus YDR069C, strain doa4
Out of some 5,500 compounds screened, about 2,000 (36%) were called active. About 18% were inconclusive and are not listed. Rule as the data show it: active = normalized growth mostly below about 0.91 (no sharp cut-off); inconclusive = no clear call, values can overlap the other calls; inactive = mostly above about 0.92. The list shows a part of the results.
Choose one outcome from this list and give only that: active, inactive

Example entries and their recorded answers appear below.
{"compound": "C[C@@H](N)[C@@H](O)c1ccccc1", "assignedClass": "inactive"}
{"compound": "O=C(O)CCCOc1ccc(Cl)cc1Cl", "assignedClass": "inactive"}
{"compound": "CO[C@]12C[C@@H](COC(=O)c3cncc(Br)c3)CN(C)[C@@H]1Cc1cn(C)c3cccc2c13", "assignedClass": "inactive"}
{"compound": "Cc1nc2ccccn2c(=O)c1CCN1CCC(C(=O)c2ccc(F)cc2)CC1", "assignedClass": "inactive"}
{"compound": "CSc1ccc2c(c1)N(CCC1CCCCN1C)c1ccccc1S2 (configuration not stated)", "assignedClass": "active"}
{"compound": "COc1cc([C@@H]2c3cc4c(cc3[C@H](OC(C)=O)[C@H]3COC(=O)[C@@H]23)OCO4)cc(OC)c1OC", "assignedClass": "inactive"}
{"compound": "Cc1cc(O)c(C=O)c2c1C(=O)Oc1c(COC(=O)/C=C/C(=O)O)c(O)c(C(=O)O)c(C)c1O2", "assignedClass": "active"}
{"compound": "CC(CCC(=O)O)[C@H]1CCC2C3C[C@H](O)[C@@H]4C[C@H](O)CC[C@]4(C)C3CC[C@@]21C (some centres not stated)", "assignedClass": "inactive"}
{"compound": "COc1cc(OC)c(OC)cc1C=O", "assignedClass": "inactive"}
{"compound": "S=P(N1CC1)(N1CC1)N1CC1", "assignedClass": "inactive"}

query: Tell me the assay call for COc1ccc(C(=O)N2CCCC2=O)cc1 please.
result: inactive

query: Please give the result for COc1c(Cl)ccc(Cl)c1C(=O)O too.
result: inactive

query: Would you kindly repeat that for CC(CCC(=O)O)[C@H]1CCC2C3C(C[C@H](O)[C@@]21C)[C@@]1(C)CC[C@@H](O)C[C@H]1C[C@H]3O (some centres not stated) ?
result: inactive

query: Likewise for C=Cc1c(C)c2[n-]c1=Cc1[n-]c(c(CC)c1C)C=c1[n-]c3c(c1C)C(=O)C(C(=O)[O-])C=3c1[n-]c(c(C)c1CCC(=O)[O-])C=2.[Cu] (configuration not stated) ?
result: active

query: Also, CC(C)CCCC(C)C1CCC2C3CC[C@H]4CCCC[C@]4(C)C3CC[C@]12C (some centres not stated) please.
result: inactive

query: Do the same for c1ccc2c(c1)CN1CCCC1=N2 please
result: inactive

query: Consider next the compound CNC(=O)Oc1ccc2c(c1)[C@]1(C)CCN(C)[C@@H]1N2C in the same way.
result: inactive

* * *

protocolDetails: chemical genetic growth profiling, strain panel (AID 1159580);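 also: tested at 20 µM; growth read once vehicle control cultures reached saturation at 30 °C; 1 = growth at the plate median or of vehicle wells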
protocolConditions: S. cerevisiae deletion strains, growth OD, locus YGR040W, strain KSS1, stronger effect = lower value
Hit rate of the full screen: of about 5,500 compounds, about 2,000 (36%) were called active. Roughly 18% stayed inconclusive and do not appear here. The list shows a part of the results.
For each record, check the reported normalized growth: if it is below 0.9 write 1, else write 0.

Worked cases, answers included:
{"compound": "O=S(=O)(Nc1ccc(Oc2ccc(OC(F)(F)F)cc2)cc1)c1cccc(Cl)c1", "assignedClass": 0}
{"compound": "Cc1ccc(N2C(=O)CSC2c2ccc(Cl)c(Cl)c2)cc1Cl (stereo unspecified)", "assignedClass": 0}
{"compound": "COc1ccc(CC2CCC(=NOC(=O)c3c(Cl)cccc3Cl)CC2)cc1 (stereo unspecified)", "assignedClass": 0}

query: Field: below-cutoff. Rule: recorded normalized growth strictly less than 0.9. Subject: Oc1ccc(N=Nc2ccccn2)c(O)c1
result: 1

query: Same lookup for CS(=O)(=O)c1sc(C(=O)Sc2ccc(Cl)cc2)c2c1C=CCC2 , please.
result: 1

* * *

protocolDetails: chemical genetic growth profiling, strain panel (AID 1159580);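 also: tested at 20 µM; growth read once vehicle control cultures reached saturation at 30 °C; 1 = growth at the plate median or of vehicle wells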
protocolConditions: S. cerevisiae deletion strains, growth OD, locus YLR039C, strain RIC1
The campaign covered roughly 5,500 compounds. About 2,000 (36%) were called active. Inconclusive results (about 18%) are left out. Cut-off read from the data, not from the text of the source: active = normalized growth mostly below about 0.91 (no sharp cut-off); inconclusive = no clear call, values can overlap the other calls; inactive = mostly above about 0.92. The list shows a part of the results.
Field 'call' accepts YES (active), NO (inactive)

{"molecule": "CC(=O)Nc1ccc(S(=O)(=O)Nc2ncccn2)cc1", "assignedClass": "NO"}

query: How was N[C@@H](Cc1cc(I)c(Oc2cc(I)c(O)c(I)c2)c(I)c1)C(=O)O classified in this test?
result: NO

query: And for O=C(O)CCCOc1ccc(Cl)cc1Cl ?
result: NO

query: Also CCC(=O)Nc1ccc(Cl)c(Cl)c1 ?
result: NO

query: Record: CC1CC2C3CC(F)C4=CC(=O)C=CC4(C)C3(F)C(O)CC2(C)C1C(=O)COC(=O)C(C)(C)C (centres undefined)
result: NO

query: Another molecule to look at: O=C(O)c1ccccc1C(=O)Nc1ccc(S(=O)(=O)Nc2nccs2)cc1
result: NO

query: Record: COc1cc([C@@H]2c3cc4c(cc3[C@H](OC(C)=O)[C@H]3COC(=O)[C@@H]23)OCO4)cc(OC)c1OC
result: NO

query: Then what about the molecule NNCCc1ccccc1 ?
result: NO

query: Then what about the molecule C[C@@H]1CC2C3C[C@H](F)C4=CC(=O)C=C[C@]4(C)[C@@]3(F)[C@@H](O)C[C@]2(C)[C@@]1(O)C(=O)COC(=O)C(C)(C)C (some centres undefined) ?
result: NO

query: Likewise for CN(C)C(=O)Nc1ccc(Cl)c(Cl)c1 ?
result: NO

query: Let us now turn to COC(=O)COc1ccc(C(C)=O)cc1
result: NO

query: Do the same for Cc1ccc2c(c1)N(CCO)C(C)(C)CC2C (centres undefined) please
result: NO

query: Request: Cc1cc(CN2CC(C)OC(C)C2)cc(C)c1O (centres undefined)
result: NO

query: What would you report for N[C@H](Cc1cc(I)c(Oc2ccc(O)c(I)c2)c(I)c1)C(=O)O ?
result: NO

query: Also need Cc1cccc(Nc2ccncc2S(=O)(=O)NC(=O)NC(C)C)c1 , thanks.
result: NO

query: Can you check COC(=O)CCCOc1ccc(Cl)cc1Cl next?
result: NO

query: Could you do the same for NCC(CC(=O)O)c1ccc(Cl)cc1 (centres undefined) , please?
result: NO

query: Note, next up: Cc1onc(-c2ccccc2)c1-c1nc(CSc2ccc(C(F)(F)F)cn2)no1
result: NO

query: Please do the same for CN1CC(CNC(=O)OCc2ccccc2)CC2c3cccc4c3c(cn4C)CC21 (centres undefined) as well.
result: NO

query: Subsequent entry: CCN(CCCc1ccccc1)CCCc1ccccc1
result: NO

query: What do we get for O=C(O)CCOc1ccc(Cl)cc1 ?
result: NO

query: # iterate: CC(=O)O[C@H]1CC[C@]2(C)C3C(=O)[C@@H](OC(C)=O)[C@@]4(C)C(C[C@@H]5O[C@]6(CCC(C)CO6)[C@@H](C)[C@@H]54)C3CC[C@H]2C1 (some centres undefined)
result: NO

query: Now the same for CC(=O)O[C@H]1CC[C@]2(C)C3=CC(=O)[C@@]4(C)C(C[C@@H]5OC6(OCC(C)CC6Br)[C@@H](C)[C@@H]54)C3CC[C@H]2C1 (some centres undefined)
result: NO

query: Okay, and CO[C@]12C[C@@H](COC(=O)c3cncc(Br)c3)CN(C)[C@@H]1Cc1cn(C)c3cccc2c13 ?
result: YES
